test system: HepG2 cells; assay: cells; conditions: Homo sapiens, HepG2, read-out: MMP assays IC50 (µM) HepG2
reported endpoint: IC50 (µM)

• Oc1cc(Cl)ccc1Oc1ccc(Cl)cc1Cl = 6.15
• Oc1ccc(-c2ccccc2)cc1Cl = 15.8
• O=[N+]([O-])c1cc(C2CCCCC2)c(O)c([N+](=O)[O-])c1 = 0.71
• COC(=O)[C@]12CCC(C)(C)C[C@H]1[C@H]1C(=O)C=C3[C@@]4(C)C=C(C#N)C(=O)C(C)(C)[C@@H]4CC[C@@]3(C)[C@]1(C)CC2 = 17.3

###

rat primary hepatocytes data, read-out MMP assays efficacy (%) Rat Hepatocytes
reported endpoint: MMP assays efficacy (%) Rat Hepatocytes

- CCCCC/C(=C\c1ccccc1)CO: -85
- CCCCC(CC)C(=O)[O-].CCCCC(CC)C(=O)[O-].[Ba+2] (stereo not shown) [Barium bis(2-ethylhexanoate)]: -43
- O=C1C(I)=CC(=C(c2cc(I)c(O)c(I)c2)c2ccccc2C(=O)O)C=C1I [Iodophthalein]: -96

Values compiled from paper PMC6112376.
